assayed system: α4β3N-Flag-δ GABAA receptor in native membranes (Homo sapiens, UniProt O14764+P28472+P48169)
Construct: expressed in transfected cells
Sequence (P48169 36-554): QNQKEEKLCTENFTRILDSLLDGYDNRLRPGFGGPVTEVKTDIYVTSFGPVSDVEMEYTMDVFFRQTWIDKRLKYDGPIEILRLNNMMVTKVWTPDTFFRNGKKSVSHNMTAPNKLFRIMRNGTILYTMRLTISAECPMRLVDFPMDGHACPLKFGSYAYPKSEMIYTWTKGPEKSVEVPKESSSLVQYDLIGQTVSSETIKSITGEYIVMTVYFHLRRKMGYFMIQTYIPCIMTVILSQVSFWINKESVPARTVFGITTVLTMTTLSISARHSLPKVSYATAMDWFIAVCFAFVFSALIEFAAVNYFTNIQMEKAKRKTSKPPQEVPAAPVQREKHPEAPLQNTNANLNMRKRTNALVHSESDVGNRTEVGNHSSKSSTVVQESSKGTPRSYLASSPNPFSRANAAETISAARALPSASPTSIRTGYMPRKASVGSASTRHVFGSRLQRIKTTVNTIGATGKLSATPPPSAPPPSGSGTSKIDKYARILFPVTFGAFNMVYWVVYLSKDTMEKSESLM
Sequence (P28472 26-473 isoform P28472-2 limits assumed): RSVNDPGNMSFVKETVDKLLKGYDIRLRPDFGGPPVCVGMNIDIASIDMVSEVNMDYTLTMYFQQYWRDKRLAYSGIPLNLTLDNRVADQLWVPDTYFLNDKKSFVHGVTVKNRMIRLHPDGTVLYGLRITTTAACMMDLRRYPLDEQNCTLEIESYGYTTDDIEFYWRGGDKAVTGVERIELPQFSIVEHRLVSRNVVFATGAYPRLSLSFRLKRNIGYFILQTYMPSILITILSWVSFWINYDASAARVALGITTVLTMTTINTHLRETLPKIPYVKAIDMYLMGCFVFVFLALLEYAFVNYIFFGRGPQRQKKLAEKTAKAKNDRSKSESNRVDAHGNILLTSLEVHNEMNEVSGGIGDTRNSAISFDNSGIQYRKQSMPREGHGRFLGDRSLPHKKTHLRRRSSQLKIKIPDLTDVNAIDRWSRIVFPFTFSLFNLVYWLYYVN
Sequence (O14764 25-452): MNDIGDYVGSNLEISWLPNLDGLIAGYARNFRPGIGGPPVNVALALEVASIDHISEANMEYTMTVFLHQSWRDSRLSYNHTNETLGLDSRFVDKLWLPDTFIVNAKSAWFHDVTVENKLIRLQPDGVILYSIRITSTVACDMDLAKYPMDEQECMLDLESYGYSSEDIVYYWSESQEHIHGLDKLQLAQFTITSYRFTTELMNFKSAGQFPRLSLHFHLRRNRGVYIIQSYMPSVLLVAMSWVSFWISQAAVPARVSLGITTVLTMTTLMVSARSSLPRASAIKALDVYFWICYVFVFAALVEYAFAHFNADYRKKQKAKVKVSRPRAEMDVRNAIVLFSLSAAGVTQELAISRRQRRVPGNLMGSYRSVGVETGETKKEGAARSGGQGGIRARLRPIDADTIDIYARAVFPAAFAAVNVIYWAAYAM
protocol summary: [3H]muscimol binding (filtration assay) to cell membranes
condition notes: 2 nM [3H]muscimol, native membranes; read-out: EC50 of modulation of [3H]muscimol binding
Experimental: Radioactive ligand binding assays were carried out as previously described, with the exception that GABAAR binding sites were assayed at 250 nM [^3H]muscimol because of this receptor’s higher affinity. Statistical analysis for electrophysiology was done using GraphPad Prism 6. […] Analysis of the [^3H]muscimol binding was carried out using Igor Pro 7 (WaveMetrics). For Western blotting, the ratio of the signal intensity of individual antibodies for each sample was determined. […]
parameter: EC50 (nM)
Numbers only, in nM.

Requested read-out: EC50. Entry: O=C(Nc1c(-c2cccs2)nc2ccccn12)c1ccc(Cl)cc1
2000
